system: NCI-H522 lung; assay: NCI-60 one-dose screen, 48 h (100 = growth as untreated, 0 = no growth, -100 = all killed); settings: 10 µM
About 83,000 compounds went through this panel and 20% of them were active in at least one assay; those are over-represented in the sample as a whole.

[
  {
    "Smiles representation": "CCOC(=O)c1c(Cl)c2c(n1Cc1ccc(OC)cc1)-c1oncc1CCC2",
    "Measured target": "NCI-H522 lung",
    "Unit label": "%",
    "growth": 95.4
  },
  {
    "Smiles representation": "O=C1/C(=C/c2ccc(Oc3ccccc3)cc2)N=C(c2ccccc2)N1CCc1cccs1",
    "Measured target": "NCI-H522 lung",
    "Unit label": "%",
    "growth": 46.8
  },
  {
    "Smiles representation": "COc1ccc(-c2nc(Nc3ccc(F)cc3)nc(Nc3ccc4c(c3)nc(C)n4Cc3ccccc3)n2)cc1",
    "Measured target": "NCI-H522 lung",
    "Unit label": "%",
    "growth": 55.4
  },
  {
    "Smiles representation": "N#Cc1c(O)c2c(c(O)c1C#N)C(=O)c1ccccc1C2=O",
    "Measured target": "NCI-H522 lung",
    "Unit label": "%",
    "growth": -5.65
  },
  {
    "Smiles representation": "CCCCc1ccc(NC(=O)C(F)(F)F)cc1",
    "Measured target": "NCI-H522 lung",
    "Unit label": "%",
    "growth": 82
  },
  {
    "Smiles representation": "O=C(COc1cccc(/C=C2\\COc3ccccc3C2=O)c1)c1ccccc1",
    "Measured target": "NCI-H522 lung",
    "Unit label": "%",
    "growth": -41.9
  },
  {
    "Smiles representation": "COc1ccc(NC(=O)COc2ccccc2)c(C(N)=O)c1",
    "Measured target": "NCI-H522 lung",
    "Unit label": "%",
    "growth": 6.28
  }
]

====

Let's look at some compounds and their measured growth.
system: SN12C renal; test: NCI-60 one-dose screen, 48 h (100 = growth as untreated, 0 = no growth, -100 = all killed); details: 10 µM unless noted
Compounds without any hit were thinned out: in the full panel of roughly 83,000, 20% have a hit.
Measured parameter: growth (%)

[
  {
    "Compound": "COc1ccc(OC)c2ncccc12",
    "Measured target": "SN12C renal",
    "Measured parameter": "growth",
    "Result number": 101
  },
  {
    "Compound": "CC(C)(C)[Si](C)(C)OC1[C@@H](COC(N)=O)O[C@@H](n2cnc3c(N)ncnc32)[C@H]1O[Si](C)(C)C(C)(C)C (stereo not given in full)",
    "Measured target": "SN12C renal",
    "Measured parameter": "growth",
    "Result number": 102
  },
  {
    "Compound": "CCCC1=NNC(=O)C1",
    "Measured target": "SN12C renal",
    "Measured parameter": "growth",
    "Result number": 101
  },
  {
    "Compound": "O=C1c2cc(S(=O)(=O)O)ccc2C(=O)c2c1cccc2[N+](=O)[O-]",
    "Measured target": "SN12C renal",
    "Measured parameter": "growth",
    "Result number": 103
  },
  {
    "Compound": "O=C(N/N=C(\\CS(=O)(=O)c1ccccc1)c1cc2cc(Br)ccc2oc1=O)c1ccccc1",
    "Measured target": "SN12C renal",
    "Measured parameter": "growth",
    "Result number": 96.1
  },
  {
    "Compound": "CN1CCN(C)c2cncc(Br)c2C1=O",
    "Measured target": "SN12C renal",
    "Measured parameter": "growth",
    "Result number": 101
  },
  {
    "Compound": "COc1ccc(C(=O)COc2cccc(/C=C3\\CSc4ccc(C)cc4C3=O)c2)cc1",
    "Measured target": "SN12C renal",
    "Measured parameter": "growth",
    "Result number": 91.7
  },
  {
    "Compound": "C[C@@H](Oc1cc(-c2cnn(C3CC4(CNC4)C3)c2)cnc1N)c1c(Cl)ccc(F)c1Cl",
    "Measured target": "SN12C renal",
    "Measured parameter": "growth",
    "Result number": 22.9
  },
  {
    "Compound": "Cc1nn(-c2ccccc2)c2nc3nc4c(c(N)c3c(-c3ccc(Cl)cc3)c12)CCC4",
    "Measured target": "SN12C renal",
    "Measured parameter": "growth",
    "Result number": 105
  },
  {
    "Compound": "COc1ccc(-c2[nH]ncc2Nc2cc(OC)c(OC)c(OC)c2)cc1",
    "Measured target": "SN12C renal",
    "Measured parameter": "growth",
    "Result number": 45.4
  },
  {
    "Compound": "COc1cc(C(=O)N(C(C)C)C2CCCCC2)cc(OC)c1OC",
    "Measured target": "SN12C renal",
    "Measured parameter": "growth",
    "Result number": 96.3
  },
  {
    "Compound": "CN1CCc2cccc3c2C1Cc1ccc(O)c(O)c1-3 (stereo not given)",
    "Measured target": "SN12C renal",
    "Measured parameter": "growth",
    "Result number": 88.4
  },
  {
    "Compound": "O=C1/C(=C/c2ccc(Cl)cc2)N=C(c2ccccc2)N1CCc1cccs1",
    "Measured target": "SN12C renal",
    "Measured parameter": "growth",
    "Result number": 45.6
  },
  {
    "Compound": "Clc1ccc(Nc2nc(Nc3ccccc3)nc(Nc3ccc(-c4cc(-c5ccc(Cl)cc5)on4)cc3)n2)cc1",
    "Measured target": "SN12C renal",
    "Measured parameter": "growth",
    "Result number": 64
  },
  {
    "Compound": "COc1cccc(-c2ccc3c(c2)C2CCN(Cc4ccccc4)C3C2)c1 (stereo not given)",
    "Measured target": "SN12C renal",
    "Measured parameter": "growth",
    "Result number": 90.4
  }
]

Values compiled from PubChem BioAssay (NCI).
